Listed below: solubility kinetic values for each entry.
STUDY_CONDITIONS: buffer; pH 7.4; 200.0 µM

{"MOLECULE": "CC(C)[C@H](NC(N)=O)C(=O)NCCc1ccc(Cl)cc1", "solubility kinetic": "> 44.7 µg/mL"}
{"MOLECULE": "Cc1onc(-c2c(F)cccc2Cl)c1C(=O)N1CCSCC1", "solubility kinetic": "> 51.1 µg/mL"}
{"MOLECULE": "COc1ccc(NS(=O)(=O)c2cccc(C(=O)O)c2)cc1S(=O)(=O)N1CCOCC1", "solubility kinetic": "> 68.5 µg/mL"}
{"MOLECULE": "Cc1ccc(Cl)cc1N1C(=O)CC(Sc2ncccn2)C1=O (centres undefined)", "solubility kinetic": "> 50.1 µg/mL"}
{"MOLECULE": "CC1CC(C)CN(C(=O)COC(=O)COc2ccccc2C#N)C1 (centres undefined)", "solubility kinetic": "> 49.6 µg/mL"}
{"MOLECULE": "COc1ccc(OC)c(Nc2nc(NCCC(C)C)nc(N)c2[N+](=O)[O-])c1", "solubility kinetic": "< 0.1 µg/mL"}
{"MOLECULE": "O=C(Cc1cccs1)N1CCN=C1SCc1cccc(F)c1", "solubility kinetic": "12.6 µg/mL"}
{"MOLECULE": "O=C(O)C1CC=CCC1C(=O)NCCCN1CCCC1=O (centres undefined)", "solubility kinetic": "> 44.2 µg/mL"}
{"MOLECULE": "O=C1NC2(CCCCC2)C(=O)N1Cc1cccc(C(F)(F)F)c1", "solubility kinetic": "8.4 µg/mL"}
{"MOLECULE": "COc1cc2c(cc1OC)CN(C(=O)CCNC(=O)c1ccccc1Cl)CC2", "solubility kinetic": "> 60.4 µg/mL"}
{"MOLECULE": "COc1cccc(C(=O)OCC(=O)NC(=O)NC2CCCC2)c1O", "solubility kinetic": "38.5 µg/mL"}
{"MOLECULE": "Cc1ccc(C)c(C(=O)COC(=O)C(C)N2C(=O)C3C4CCC(C4)C3C2=O)c1 (centres undefined)", "solubility kinetic": "42 µg/mL"}
{"MOLECULE": "Cc1ccc(C(=O)NC(=S)Nc2ccc(CN3CCOCC3)cc2)cc1", "solubility kinetic": "2.7 µg/mL"}
{"MOLECULE": "COc1ccc(CC(=O)Nc2cc(C)ccn2)cc1OC", "solubility kinetic": "27.7 µg/mL"}
{"MOLECULE": "COc1ccc(CCNC(=O)C(=O)N2CCCC2)cc1OC", "solubility kinetic": "39.7 µg/mL"}
{"MOLECULE": "CCC(CC)NC(=O)C1CC(=O)N(CCc2ccc(F)cc2)C1 (centres undefined)", "solubility kinetic": "> 48.1 µg/mL"}
{"MOLECULE": "Cc1ccc(NC(=O)COC(=O)Cc2ccccc2)cc1S(=O)(=O)N1CCOCC1", "solubility kinetic": "58.1 µg/mL"}
{"MOLECULE": "O=C(NCCc1ccc(Cl)cc1)C1CCN(c2ncccn2)CC1", "solubility kinetic": "6.7 µg/mL"}
{"MOLECULE": "NC(N)=O", "solubility kinetic": "> 9 µg/mL"}
{"MOLECULE": "O=C(OCC(=O)N1CCCCCC1)c1ccc(Cl)nc1", "solubility kinetic": "> 44.5 µg/mL"}
{"MOLECULE": "CCOC(=O)C1=C(C)OC(N)=C(C#N)C1c1ccc(C)s1 (centres undefined)", "solubility kinetic": "13.2 µg/mL"}
{"MOLECULE": "COc1ccc(NC(=O)CCCc2ccccc2)c(OC)c1", "solubility kinetic": "36.4 µg/mL"}
{"MOLECULE": "COc1ccccc1C(=O)NCCC(=O)NCCOc1ccccc1", "solubility kinetic": "> 51.4 µg/mL"}
{"MOLECULE": "CCCCNS(=O)(=O)c1cc2c3c(c1)CCN3C(=O)CC2", "solubility kinetic": "44.3 µg/mL"}
